- System: MDA-MB-435
- measurement_notes: NCI tumour cell line growth inhibition, 48 h
Active and inactive are the calls of the source. Rule as the data show it: active = GI50 up to about 1.1 µM and inactive = higher.
Field 'call' accepts active, inactive

The examples below pair each entry with its known result.
Prompt line: Fill in: this test's call for CCn1c2c(c3ccccc3c1=O)C(=O)c1ccccc1-2 is ___
Response line: inactive

Prompt line: Fill in: this test's call for O=C1CCCSCCCC(=O)CCCSCCC1 is ___
Response line: inactive

Prompt line: Fill in: this test's call for Cc1nc(O)nc(NNCc2ccc(Cl)cc2)c1C(=O)Nc1ccc(Cl)cc1 is ___
Response line: inactive

Prompt line: Fill in: this test's call for CCCCCCCCP(=O)(O)OP(=O)(O)OCC1OC(n2ccc(N)nc2=O)C(O)C1O (stereo unspecified) is ___
Response line: inactive

Now examine the next entry.
Prompt line: Fill in: this test's call for CC(Cl)CN1c2ccccc2Sc2ccc(Cl)cc21 (stereo unspecified) is ___
Response line: inactive
